Tested on: ATP;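 also: ATP exposure 15 min at 22 °C before imaging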
Assay Text: switch fluorescence ratio, 500 uM ATP over buffer (Cy3 cluster intensity, sum of 5 cycles each) (fold (ratio)); higher = stronger signal-on switching upon ATP binding; sequences stand for … in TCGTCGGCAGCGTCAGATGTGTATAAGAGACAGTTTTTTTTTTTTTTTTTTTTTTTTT…TC
Setup Conditions: aptamer strand: ATP DNA aptamer (quencher-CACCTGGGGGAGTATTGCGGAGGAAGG + anchor), 100 nM annealed; ATP concentration: 500 uM
Measured Parameter: switch fluorescence ratio

Solved entries:
TTAGTGGACT; 1.02
CGAAACTCTG; 1
ACGAGTGTCG; 0.964
TTTTTTTTTT; 1.01
GTTATCCGGG; 1.01
TTGGGTACGT; 1.02

Please look up its switch fluorescence ratio: `AGTGGCTTCC`
2.04

Please look up its switch fluorescence ratio: `TAAGTTTTCA`
1.02

Please look up its switch fluorescence ratio: `TTTCTGAGTT`
1.01

Please look up its switch fluorescence ratio: `ATAAGGCCCG`
1.04

Please look up its switch fluorescence ratio: `GGTAGAGGGT`
0.978

Please look up its switch fluorescence ratio: `TAATGGTCGT`
0.989

###

System: ATP;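 also: ATP exposure 15 min at 22 °C before imaging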
Assay Text: switch fluorescence ratio, 500 uM ATP over buffer (Cy3 cluster intensity, sum of 5 cycles each) (fold (ratio)); higher = stronger signal-on switching upon ATP binding; sequences stand for … in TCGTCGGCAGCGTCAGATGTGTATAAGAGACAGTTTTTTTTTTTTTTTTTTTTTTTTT…TC
Setup Conditions: aptamer strand: ATP DNA aptamer (quencher-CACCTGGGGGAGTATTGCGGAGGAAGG + anchor), 100 nM annealed; ATP concentration: 500 uM
Measured Parameter: switch fluorescence ratio
Please state the value as a number alone, without comment.

TCGCTTTT; 1.02
TTAGAGGGTA; 0.974
CGGCAGTTCG; 0.979

Please look up its switch fluorescence ratio: `ATTATTATGG`
1.01

Please look up its switch fluorescence ratio: `GGTTGAGTG`
0.977

Please look up its switch fluorescence ratio: `ATGCACCAGG`
2.55

Please look up its switch fluorescence ratio: `CCTGGAGGGG`
1.07

Please look up its switch fluorescence ratio: `AAAGCTGCTT`
0.987

Please look up its switch fluorescence ratio: `ACAGACTTGT`
1.01

Please look up its switch fluorescence ratio: `TAAGATGTTT`
0.957

Please look up its switch fluorescence ratio: `CTGGTCAATG`
1.01

Please look up its switch fluorescence ratio: `GGGGGCACGG`
1.01

###

Measured switch fluorescence ratio accompanies every entry in the list below.
Tested on: ATP;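 also: ATP exposure 15 min at 22 °C before imaging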
Assay Text: switch fluorescence ratio, 500 uM ATP over buffer (Cy3 cluster intensity, sum of 5 cycles each) (fold (ratio)); higher = stronger signal-on switching upon ATP binding; sequences stand for … in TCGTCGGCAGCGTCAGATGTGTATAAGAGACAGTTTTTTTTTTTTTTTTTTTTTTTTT…TC
Setup Conditions: aptamer strand: ATP DNA aptamer (quencher-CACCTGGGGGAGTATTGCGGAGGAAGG + anchor), 100 nM annealed; ATP concentration: 500 uM
Please state the value as a number alone, without comment.

Solved entries:
CTCTGAAATC; 3
GTGGTTTTGA; 0.983
GAGCGGGTTG; 0.984
TTTGAGACGT; 1.02
CGGTTGTCGA; 1.01
GGGTCGGCCG; 0.983
ATTTTGATTT; 1

Please look up its switch fluorescence ratio: `AGGTAGAGGA`
1.01
